Molecular target: PI 3-kinase gamma (Homo sapiens, UniProt P48736)
Sequence (P48736 whole entry): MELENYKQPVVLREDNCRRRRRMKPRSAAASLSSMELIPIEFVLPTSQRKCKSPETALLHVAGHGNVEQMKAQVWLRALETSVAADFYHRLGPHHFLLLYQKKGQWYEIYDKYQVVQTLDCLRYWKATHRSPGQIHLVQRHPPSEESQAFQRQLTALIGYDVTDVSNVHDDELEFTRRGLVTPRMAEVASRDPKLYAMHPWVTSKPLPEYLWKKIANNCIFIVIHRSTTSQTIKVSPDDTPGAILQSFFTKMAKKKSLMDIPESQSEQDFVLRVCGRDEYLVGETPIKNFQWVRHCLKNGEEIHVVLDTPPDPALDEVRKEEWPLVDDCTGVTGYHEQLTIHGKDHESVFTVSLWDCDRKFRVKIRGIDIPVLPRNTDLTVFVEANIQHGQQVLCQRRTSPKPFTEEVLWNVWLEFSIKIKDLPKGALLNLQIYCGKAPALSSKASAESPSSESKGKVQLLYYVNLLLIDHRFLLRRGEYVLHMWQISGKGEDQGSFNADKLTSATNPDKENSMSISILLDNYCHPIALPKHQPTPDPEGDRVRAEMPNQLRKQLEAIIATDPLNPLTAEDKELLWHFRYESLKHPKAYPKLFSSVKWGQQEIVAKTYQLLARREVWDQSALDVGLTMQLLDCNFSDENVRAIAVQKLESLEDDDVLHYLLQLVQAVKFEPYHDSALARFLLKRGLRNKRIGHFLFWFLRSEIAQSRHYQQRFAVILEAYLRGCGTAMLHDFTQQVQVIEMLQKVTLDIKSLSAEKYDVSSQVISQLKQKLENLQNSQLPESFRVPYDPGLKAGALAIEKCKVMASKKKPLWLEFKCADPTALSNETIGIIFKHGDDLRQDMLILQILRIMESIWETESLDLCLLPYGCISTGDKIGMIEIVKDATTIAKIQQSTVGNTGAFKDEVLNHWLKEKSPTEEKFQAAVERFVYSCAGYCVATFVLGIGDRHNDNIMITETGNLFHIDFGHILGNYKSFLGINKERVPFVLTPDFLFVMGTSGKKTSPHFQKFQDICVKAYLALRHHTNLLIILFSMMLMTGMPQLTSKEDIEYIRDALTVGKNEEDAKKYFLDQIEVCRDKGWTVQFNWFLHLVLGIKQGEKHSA
Experiment: Cellular U937 AKT assay K1 (MSD)
Type: cell-based
Details: U937 cells, K1 format; read-out: Assay K1 PI3Kγ IC50
property.name: IC50 (nM)

molecule | IC50 (nM)
Cc1ncn(-c2nc(-c3cc(S(=O)(=O)NCC(C)(C)O)ccc3C)cnc2N)n1 | 153
Cc1ccc(S(=O)(=O)NCC2(C)CCCO2)cc1-c1cnc(N)c(-c2cn(C)nc2C)n1 (stereo not drawn) | 104
CCc1noc(-c2nc(-c3cc(S(=O)(=O)NCCC(C)(C)O)ccc3C)cnc2N)n1 | 124
Cc1ccc(S(=O)(=O)NCC(C)(C)O)cc1-c1cnc(N)c(-c2ccoc2)n1 | 192
CCc1noc(-c2nc(-c3cc(S(=O)(=O)N4CCC(CO)CC4)ccc3C)cnc2N)n1 | 947
Cc1ccc(S(=O)(=O)NCCC(C)(C)O)cc1-c1cnc(N)c(-c2cc[nH]n2)n1 | 200
Cc1ccc(S(=O)(=O)NOCC(C)(C)O)cc1-c1cnc(N)c(-c2cn(C)nc2C)n1 | 51

[a] Cc1ccc(S(=O)(=O)NCCC(C)(C)O)cc1-c1cnc(N)c(-c2cnn(C(C)C)c2)n1
[b] CCONS(=O)(=O)c1ccc(C)c(-c2cnc(N)c(-n3cncn3)n2)c1
Just tell me: smaller IC50 value, a or b ? Record your answer as the label of the chosen record.
a

###

Molecular target: PI 3-kinase gamma (Homo sapiens, UniProt P48736)
Test: TR-FRET Adapta assay, assay E
Format: biochemical
Details: read-out: Assay E PI3Kγ IC50
pIC50: −log10 of the molar value.
property.name: pIC50

Recorded results for 3 compounds are shown here.
compound | pIC50
Cc1ncc(-c2nc(-c3cc(S(=O)(=O)NCC4(CO)COC4)ccc3C)cnc2N)s1 | 8.30
Cc1ncc(-c2nc(-c3cc(S(=O)(=O)NCC4COCCN4C)ccc3C)cnc2N)s1 (stereo not shown) | 7.82
Cc1ncc(-c2nc(-c3cc(S(=O)(=O)N[C@H]4C[C@@H](O)C4)ccc3C)cnc2N)s1 [Example 43a] | 7.59

[1] Cc1cc(-c2nc(-c3cc(S(=O)(=O)N[C@@H]4CCC[C@H]4N)ccc3C)cnc2N)ccn1
[2] Cc1ccc(S(=O)(=O)N2CC(F)(F)C(F)(F)C2)cc1-c1cnc(N)c(-n2cncn2)n1
[3] Cc1nc(-c2nc(-c3cc(S(=O)(=O)NCCC(C)(C)O)ccc3C)cnc2N)cs1
[4] Cc1ccc(S(=O)(=O)NOCC(C)(C)O)cc1-c1cnc(N)c(-n2cncn2)n1
Arrange the 4 compounds from largest to smallest pIC50. List the labels according to the requested ordering.
3, 4, 1, 2
(3: 7.89, 4: 7.57, 1: 6.96, 2: 6.00)

[1] Cc1cc(-c2nc(-c3cc(S(=O)(=O)NC4CCN(C)CC4)ccc3C)cnc2N)ccn1
[2] Cc1ccc(S(=O)(=O)NC[C@@H](C)O)cc1-c1cnc(N)c(-n2cncn2)n1
Select the item with the higher value of pIC50 from the options 1 and 2 listed. Record your answer as the label of the chosen record.
2
(2: 7.59, 1: 6.55)

[1] CCc1noc(-c2nc(-c3cc(S(=O)(=O)NCCC(C)(C)O)ccc3C)cnc2N)n1
[2] Cc1ccc(S(=O)(=O)NCCC(C)(C)O)cc1-c1cnc(N)c(-c2c[nH]nc2C)n1
Just tell me: smaller pIC50 value, 1 or 2 ? Record your answer as the label of the chosen record.
2

[A] Cc1ccc(S(=O)(=O)NCCC(C)(C)O)cc1-c1cnc(N)c(-c2cnn(CCN3CCOCC3)c2)n1
[B] Cc1ccc(S(=O)(=O)NCC2(O)COC2)cc1-c1cnc(N)c(-n2cncn2)n1
Just tell me: smaller pIC50 value, A or B ? Record your answer as the label of the chosen record.
B

[I] CC(C)(O)CCNS(=O)(=O)c1ccc(Cl)c(-c2cnc(N)c(-n3cncn3)n2)c1
[II] CCn1cc(-c2nc(-c3cc(S(=O)(=O)NCC(C)(C)O)ccc3C)cnc2N)nn1
Select the item with the higher value of pIC50 from the options I and II listed. Record your answer as the label of the chosen record.
I
(I: 7.60, II: 7.07)

[I] Cc1ccc(S(=O)(=O)NCC2CCCOC2)cc1-c1cnc(N)c(-n2cncn2)n1 (stereo not shown)
[II] Cc1ccc(-c2nc(-c3cc(S(=O)(=O)NCCC(C)(C)O)ccc3C)cnc2N)s1
[III] Cc1ccc(S(=O)(=O)N[C@H]2CC[C@H](O)CC2)cc1-c1cnc(N)c(-c2ccncc2)n1
[IV] Cc1ccc(S(=O)(=O)N2CC(F)(F)C2)cc1-c1cnc(N)c(-n2cncn2)n1
Arrange the 4 compounds from largest to smallest pIC50. List the labels according to the requested ordering.
III, I, II, IV

Origin of values: patent US10004732B2
